Target: BMPR1A (Homo sapiens, UniProt P36894)
Sequence (P36894 24-532): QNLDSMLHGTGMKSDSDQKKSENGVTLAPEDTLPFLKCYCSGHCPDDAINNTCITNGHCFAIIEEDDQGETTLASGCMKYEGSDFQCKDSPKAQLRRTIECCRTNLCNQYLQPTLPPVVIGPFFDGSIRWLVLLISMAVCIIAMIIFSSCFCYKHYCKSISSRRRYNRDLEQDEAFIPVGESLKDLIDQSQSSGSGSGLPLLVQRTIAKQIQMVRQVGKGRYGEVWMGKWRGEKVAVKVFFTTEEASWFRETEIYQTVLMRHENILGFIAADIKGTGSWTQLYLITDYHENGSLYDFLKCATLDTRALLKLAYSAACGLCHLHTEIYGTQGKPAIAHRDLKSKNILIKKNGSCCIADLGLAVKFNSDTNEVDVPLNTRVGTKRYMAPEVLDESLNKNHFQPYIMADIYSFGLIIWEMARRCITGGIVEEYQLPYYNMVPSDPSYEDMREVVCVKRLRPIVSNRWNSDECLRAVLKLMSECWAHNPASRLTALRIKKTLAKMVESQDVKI
measured_quantity: IC50 (µM)
Just the number please, in µM, no unit attached.

Please look at this molecule and report its IC50: COc1cc(-c2nc3ccc(C(=O)NCCCN4CCN(c5cccc(C)c5C)CC4)cc3n2C2CCC2)cc(OC)c1OC
0.257

* * *

Biological target: ACVRL1 (Homo sapiens, UniProt P37023)
Construct: purchased ThermoFisher
Sequence (P37023 22-503): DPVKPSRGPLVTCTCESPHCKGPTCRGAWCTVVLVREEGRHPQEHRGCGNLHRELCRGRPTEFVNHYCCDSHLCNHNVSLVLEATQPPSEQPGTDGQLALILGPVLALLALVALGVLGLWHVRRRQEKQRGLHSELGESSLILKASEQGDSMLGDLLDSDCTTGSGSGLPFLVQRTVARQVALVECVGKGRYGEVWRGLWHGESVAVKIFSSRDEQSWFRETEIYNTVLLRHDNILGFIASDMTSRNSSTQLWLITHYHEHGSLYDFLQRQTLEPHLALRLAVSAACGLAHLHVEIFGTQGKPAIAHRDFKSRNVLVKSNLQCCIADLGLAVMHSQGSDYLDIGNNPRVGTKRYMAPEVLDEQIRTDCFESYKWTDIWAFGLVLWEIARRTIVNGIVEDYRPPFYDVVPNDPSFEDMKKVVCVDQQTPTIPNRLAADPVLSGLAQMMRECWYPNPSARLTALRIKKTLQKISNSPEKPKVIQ
Test: ThermoFisher (Lantha) kinase assay, inhibition of ACVRL1
Type: biochemical
Conditions: in vitro, NA = not active at 1 μM
measured_quantity: IC50

Below are worked cases with known answers.
COc1cc(-c2nc3ccc(C(=O)NCCCN(C)C)cc3n2C2CCC2)cc(OC)c1OC [CDD-2789]	9.9 nM
CNC(=O)[C@@H]1CC[C@@H](n2c(-c3cc(OC)c(OC)c(OC)c3)nc3ccc(C(=O)NCCCN4CCN(c5ccccc5)CC4)cc32)C1 [CDD-2622]	11.5 nM

Please look at this compound and report its IC50: COc1cc(-c2nc3ccc(C(=O)NCCCN4CCN(c5cccc(C)c5C)CC4)cc3n2C2CCC2)cc(OC)c1OC [CDD-2342]
18.8 nM

* * *

Molecular target: ACVR1^WT (Homo sapiens)
Sequence (Q04771 21-509): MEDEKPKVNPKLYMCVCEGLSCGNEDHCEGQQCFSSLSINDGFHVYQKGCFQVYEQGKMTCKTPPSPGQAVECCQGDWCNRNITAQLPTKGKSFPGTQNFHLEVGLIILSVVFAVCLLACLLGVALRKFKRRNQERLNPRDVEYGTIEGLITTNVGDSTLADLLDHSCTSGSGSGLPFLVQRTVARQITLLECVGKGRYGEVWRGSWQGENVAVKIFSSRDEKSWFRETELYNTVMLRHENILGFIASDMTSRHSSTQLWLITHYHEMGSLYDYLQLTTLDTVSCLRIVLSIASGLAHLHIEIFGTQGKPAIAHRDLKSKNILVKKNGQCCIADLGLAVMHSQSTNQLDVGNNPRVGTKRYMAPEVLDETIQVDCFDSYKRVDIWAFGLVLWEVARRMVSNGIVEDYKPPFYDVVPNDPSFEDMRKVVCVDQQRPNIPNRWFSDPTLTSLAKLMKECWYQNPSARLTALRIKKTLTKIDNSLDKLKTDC
Assay: Promega NanoBRET live-cell target engagement, ACVR1
Settings: in cellulo; NI = No inhibition at 40 μM
measured_quantity: pIC50
Scale: negative log10 of molar concentration, which is what pIC50 denotes.

Below are worked cases with known answers.
COc1cc(OC)cc(-c2nc3ccc(C(=O)NCCCN4CCN(c5cccc(C)c5C)CC4)cc3n2C2CCC2)c1	5.33
COc1cc(F)cc(-c2nc3ccc(C(=O)NCCCN(C)C)cc3n2C2CCC2)c1	4.97
CNC(=O)[C@H]1C[C@H](n2c(-c3ccc(OC)c(OC)c3)nc3ccc(C(=O)NCCCN4CCN(c5cccc(C)c5C)CC4)cc32)C1	5.91
CNC(=O)[C@H]1C[C@H](n2c(-c3cc(OC)cc(OC)c3)nc3ccc(C(=O)NCCCN(C)C)cc32)C1	4.55
CNC(=O)[C@H]1C[C@H](n2c(-c3cccc(OC)c3)nc3ccc(C(=O)NCCCN4CCN(c5ccccc5)CC4)cc32)C1	5.21

Given COc1cc(-c2nc3ccc(C(=O)NCCCN4CCN(c5ccccn5)CC4)cc3n2C2CCC2)cc(OC)c1OC , report its pIC50 on ACVR1^WT (Homo sapiens).
6.33

Source listed as patent US20260217660A1.
